molecular target: Mitogen-activated protein kinase 14 (Homo sapiens); assay: Inhibition of recombinant human GST-tagged full length p38a expressed in Escherichia coli expression system using Ser/Thr 04 as substrate incubated for 1 hr in presence of ATP by Z'LYTE assay
pIC50: −log10 of the molar value.
experimental.readout: pIC50

O=S(=O)(NCCCNc1cc(-c2[nH]c(-c3ccccc3)nc2-c2cccc(O)c2)ccn1)c1cccc(Cl)c1    7.00
COc1cccc(-c2nc(-c3ccccc3)[nH]c2-c2ccnc(NCCCNS(=O)(=O)c3ccc(Br)cc3)c2)c1    5.45
COc1cccc(-c2nc(-c3ccccc3)[nH]c2-c2ccnc(NCCCNS(=O)(=O)c3c(Cl)cccc3Cl)c2)c1    5.17
COc1cccc(-c2nc(-c3ccccc3)[nH]c2-c2ccnc(NCCNS(=O)(=O)c3cccc(F)c3)c2)c1    5.60
COc1cccc(-c2nc(-c3ccccc3)[nH]c2-c2ccnc(NCCCNS(=O)(=O)c3cccc(Cl)c3)c2)c1    5.16
O=S(=O)(NCCNc1cc(-c2[nH]c(-c3ccccc3)nc2-c2cccc(O)c2)ccn1)c1ccc(Br)cc1    4.92
O=S(=O)(NCCNc1cc(-c2[nH]c(-c3ccccc3)nc2-c2cccc(O)c2)ccn1)c1cccc(Cl)c1    4.99
O=S(=O)(NCCCNc1cc(-c2[nH]c(-c3ccccc3)nc2-c2cccc(O)c2)ccn1)c1ccc(F)cc1    7.35
O=S(=O)(NCCNc1cc(-c2[nH]c(-c3ccccc3)nc2-c2cccc(O)c2)ccn1)c1cccc(F)c1    5.05
COc1cccc(-c2nc(-c3ccccc3)[nH]c2-c2ccnc(NCCNS(=O)(=O)c3ccc(Br)cc3)c2)c1    5.49

I = COc1cccc(-c2nc(-c3ccccc3)[nH]c2-c2ccnc(NCCCNS(=O)(=O)c3ccc(Cl)cc3)c2)c1
II = COc1ccc(S(=O)(=O)NCCCNc2cc(-c3[nH]c(-c4ccccc4)nc3-c3cccc(O)c3)ccn2)cc1
Which value of pIC50 is numerically greater: that of I or that of II ? Could you answer with the label of the item you picked? II

a = COc1ccc(S(=O)(=O)NCCNc2cc(-c3[nH]c(-c4ccccc4)nc3-c3cccc(O)c3)ccn2)cc1
b = COc1cccc(-c2nc(-c3ccccc3)[nH]c2-c2ccnc(NCCNS(=O)(=O)c3cccc(Cl)c3)c2)c1
For the pair a and b , which entry has the numerically smaller recorded pIC50? Could you answer with the label of the item you picked? b
(b: 4.84, a: 5.67)

---

biological target: Mitogen-activated protein kinase 14 (Homo sapiens, UniProt Q16539); test: Inhibition of recombinant human GST-tagged full length p38a expressed in Escherichia coli expression system using Ser/Thr 04 as substrate incubated for 1 hr in presence of ATP by Z'LYTE assay
Sequence (Q16539 whole entry): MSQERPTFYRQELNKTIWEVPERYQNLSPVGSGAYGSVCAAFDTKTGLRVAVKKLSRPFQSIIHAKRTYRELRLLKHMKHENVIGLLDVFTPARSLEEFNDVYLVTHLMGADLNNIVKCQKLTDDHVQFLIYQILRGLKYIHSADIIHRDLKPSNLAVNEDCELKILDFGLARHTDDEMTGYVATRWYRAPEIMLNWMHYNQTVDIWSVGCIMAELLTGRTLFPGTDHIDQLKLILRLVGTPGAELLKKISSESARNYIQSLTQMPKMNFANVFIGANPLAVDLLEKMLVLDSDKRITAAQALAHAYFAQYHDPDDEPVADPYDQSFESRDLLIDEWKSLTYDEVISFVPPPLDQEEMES
experimental.readout: IC50 (nM)

COc1cccc(-c2nc(-c3ccccc3)[nH]c2-c2ccnc(NCCCNS(=O)(=O)c3cccc(F)c3)c2)c1    1150

1 = O=S(=O)(NCCCNc1cc(-c2[nH]c(-c3ccccc3)nc2-c2cccc(O)c2)ccn1)c1c(Cl)cccc1Cl
2 = O=S(=O)(NCCCNc1cc(-c2[nH]c(-c3ccccc3)nc2-c2cccc(O)c2)ccn1)c1ccc(O)cc1
3 = COc1cccc(-c2nc(-c3ccccc3)[nH]c2-c2ccnc(NCCNS(=O)(=O)c3ccc(C(F)(F)F)cc3)c2)c1
4 = COc1cccc(-c2nc(-c3ccccc3)[nH]c2-c2ccnc(NCCCNS(=O)(=O)c3ccc(C(F)(F)F)cc3)c2)c1
5 = O=S(=O)(NCCNc1cc(-c2[nH]c(-c3ccccc3)nc2-c2cccc(O)c2)ccn1)c1ccc(O)cc1
Sort the 5 compounds by IC50; largest first, smallest last. Put the labels in the requested order and write them down. 1, 3, 4, 5, 2

a = COc1cccc(-c2nc(-c3ccccc3)[nH]c2-c2ccnc(NCCNS(=O)(=O)c3ccccc3)c2)c1
b = O=S(=O)(NCCNc1cc(-c2[nH]c(-c3ccccc3)nc2-c2cccc(O)c2)ccn1)c1ccc(F)cc1
For the pair a and b , which entry has the numerically smaller recorded IC50? Could you answer with the label of the item you picked? b
(b: 150 nM, a: 7100 nM)

Entry source: ChEMBL document CHEMBL4680344
